Tested on: MARIMO
PROCEDURE TEXT: cell viability relative to vehicle control; higher = less cytotoxic;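 also: after 48 h exposure read by CellTiter-Glo luminescence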
CONDITION CONTEXT: 10 µM; SRSF2 genotype: SRSF2 P95H/wt
METRIC NAME: cell viability (%)
The answer is to be given in %; state only the numeric part.

Use the examples below as a reference point.
{"COMPOUND": "C[n+]1ccccc1C=NO [Pralidoxime Iodide]", "READOUT UNITS": "%", "cell viability": 101}
{"COMPOUND": "CCOc1ccccc1N=Nc1c(C)[nH]n(-c2nc(-c3ccccc3)cs2)c1=O", "READOUT UNITS": "%", "cell viability": 101}
{"COMPOUND": "CC(C)c1c(-c2ccccc2)nc2c(C#N)c[nH]n2c1=O", "READOUT UNITS": "%", "cell viability": 103}
{"COMPOUND": "COC(=O)C1=CC[C@@]23CC[C@@H]([C@@](C)(/C=C/C=C(\\C)C(=O)O)OC2=O)[C@@]3(OC(C)=O)CC1", "READOUT UNITS": "%", "cell viability": 6.72}
{"COMPOUND": "Nc1ncnc2c1ncn2C(C=O)OC(C=O)CO (centres undefined)", "READOUT UNITS": "%", "cell viability": 60.7}
{"COMPOUND": "COc1ccc(CCC(=O)c2c(O)cc(O[C@@H]3O[C@H](CO)[C@@H](O)[C@H](O)[C@H]3O[C@@H]3O[C@@H](C)[C@H](O)[C@@H](O)[C@H]3O)cc2O)cc1O [Neohesperidin dihydrochalcone (Nhdc)]", "READOUT UNITS": "%", "cell viability": 82.7}

Now, please, on to the next compound.
(Q) Entry `C[C@@H](O)[C@H]1C(=O)N2C(C(=O)O)=C(S[C@@H]3CN[C@H](CNS(N)(=O)=O)C3)[C@H](C)[C@H]12` : reported cell viability = ?
(A) 93.2

----------
System: MARIMO
PROCEDURE TEXT: cell viability relative to vehicle control; higher = less cytotoxic
CONDITION CONTEXT: 10 µM; SRSF2 genotype: SRSF2 wt/wt
Structures can show the parent of a compound that is named as a salt.
Quick list: cell viability per entry.
The answer is to be given in %; state only the numeric part.

{"COMPOUND": "Clc1ccc2nsnc2c1NC1=NCCN1 [Tizanidine HCl]", "TARGET UNDER TEST": "MARIMO", "READOUT UNITS": "%", "cell viability": 107}

(Q) Can you look up cell viability on MARIMO for `CC1(C)CC(=O)c2c(C(F)(F)F)nn(-c3ccc(C(N)=O)c(N[C@H]4CC[C@H](O)CC4)c3)c2C1` ?
(A) 25.9

(Q) Follow-up item: CC1OC(OC2CCC3(C)C(CCC4(C)C3C=CC3=C5CC(C)(C)CCC5(CO)C(O)CC34C)C2(C)CO)C(O)C(OC2OC(CO)C(O)C(O)C2O)C1O (configuration not stated)
(A) 106

(Q) Follow-up item: `CC(C)=CCc1cc2c(cc1O)O[C@H](c1ccc(O)cc1)CC2=O`
(A) 99.5

(Q) Follow-up item: `COC(=O)N(C)c1c(N)nc(-c2nn(Cc3ccccc3F)c3ncccc23)nc1N`
(A) 99

(Q) Follow-up item: `Cc1cnc(C(=O)N[C@H]2CCCCC/C=C\[C@@H]3C[C@@]3(C(=O)NS(=O)(=O)C3CC3)NC(=O)[C@@H]3C[C@@H](Oc4nc5ccccc5c5ccccc45)CN3C2=O)cn1`
(A) 119

(Q) Follow-up item: `CCOC(=O)Nc1cc(-c2ccc(C)c(NS(C)(=O)=O)c2)nn2c(C)nnc12`
(A) 13.9

----------
System: MARIMO
PROCEDURE TEXT: cell viability relative to vehicle control; higher = less cytotoxic
CONDITION CONTEXT: 10 µM; SRSF2 genotype: SRSF2 wt/wt
Quick list: cell viability per entry.
The answer is to be given in %; state only the numeric part.

Use the examples below as a reference point.
{"MOLECULE": "CCCCc1nc(Cl)c(CO)n1Cc1ccc(-c2ccccc2-c2nnn[nH]2)cc1 [Losartan potassium]", "TARGET UNDER TEST": "MARIMO", "cell viability, %": 114}
{"MOLECULE": "C[C@]12CCC3=C4CCC(=O)C=C4CC[C@H]3[C@@H]1CC[C@@]2(O)CC#N [Dienogest]", "TARGET UNDER TEST": "MARIMO", "cell viability, %": 107}
{"MOLECULE": "COC(=O)[C@@H]1CC2=CC(=O)CC[C@]2(C)[C@@]23O[C@@H]2C[C@@]2(C)[C@@H](CC[C@@]24CCC(=O)O4)[C@H]13 [Eplerenone]", "TARGET UNDER TEST": "MARIMO", "cell viability, %": 103}

(Q) Entry C=C(C)[C@@H]1CC[C@]2(C(=O)O)CC[C@]3(C)[C@H](CC[C@@H]4[C@@]5(C)CC[C@H](OC(=O)CC(C)(C)C(=O)O)C(C)(C)[C@@H]5CC[C@]43C)[C@@H]12 [Bevirimat] : reported cell viability = ?
(A) 107

----------
Tested on: MARIMO
PROCEDURE TEXT: cell viability relative to vehicle control; higher = less cytotoxic
CONDITION CONTEXT: 10 µM; SRSF2 genotype: SRSF2 wt/wt
Counter-ions that a name gives are not always drawn.
METRIC NAME: cell viability (%)
The answer is to be given in %; state only the numeric part.

Use the examples below as a reference point.
{"COMPOUND": "CCOC(=O)c1ccc(N2NC(=O)C(=Cc3ccc([N+](=O)[O-])o3)C2=O)cc1", "READOUT UNITS": "%", "cell viability": 90.9}
{"COMPOUND": "C[C@@H]1C/C=C/C=C/C=C/C=C/[C@H](O[C@@H]2O[C@H](C)[C@@H](O)[C@H](N)[C@@H]2O)C[C@@H]2O[C@](O)(C[C@@H](O)C[C@H]3O[C@@H]3/C=C/C(=O)O1)C[C@H](O)[C@H]2C(=O)O", "READOUT UNITS": "%", "cell viability": 105}
{"COMPOUND": "O=C(O)c1cc(=O)c2c(OCC(O)COc3cccc4oc(C(=O)O)cc(=O)c34)cccc2o1 [Disodium Cromoglycate]", "READOUT UNITS": "%", "cell viability": 98.5}

(Q) Entry CCCCC(CC)COC(=O)C(C#N)=C(c1ccccc1)c1ccccc1 (configuration not stated) : reported cell viability = ?
(A) 107

(Q) Follow-up item: `C=CCNC(N)=S`
(A) 112

(Q) Follow-up item: COc1cccc2c1C(=O)c1c(O)c3c(c(O)c1C2=O)C[C@@](O)(C(=O)CO)C[C@@H]3O[C@H]1C[C@H](N)[C@@H](O)[C@H](C)O1 [Epirubicin Hydrochloride]
(A) 2.14

(Q) Follow-up item: N[C@@H](CC(=O)N1CCn2c(nnc2C(F)(F)F)C1)Cc1cc(F)c(F)cc1F [Sitagliptin phosphate monohydrate]
(A) 110

----------
Tested on: MOLM14
PROCEDURE TEXT: cell viability relative to vehicle control; higher = less cytotoxic
CONDITION CONTEXT: 10 µM; SRSF2 genotype: SRSF2 P95H/wt
Kindly apply the following: t if cell viability is less than 90%, f in every other case.

{"COMPOUND": "O=C(O)c1cc(=O)[nH]c(=O)[nH]1", "CLASS ASSIGNMENT": "f"}
{"COMPOUND": "COC[C@H](NC(=O)c1cnc(C)s1)C(=O)N[C@@H](COC)C(=O)N[C@@H](Cc1ccccc1)C(=O)[C@@]1(C)CO1", "CLASS ASSIGNMENT": "t"}
{"COMPOUND": "CC[C@@H]1C(=O)N(C)c2cnc(Nc3ccc(C(=O)N[C@H]4CC[C@H](N5CCN(CC6CC6)CC5)CC4)cc3OC)nc2N1C(C)C", "CLASS ASSIGNMENT": "t"}

(Q) Check if cell viability falls below 90% for O=C(O)CC(C(=O)O)n1c(O)c(C2=c3cc(Br)ccc3=NC2=O)sc1=S (configuration not stated) .
(A) t

(Q) Follow-up item: CCCC(=O)OCOC(=O)C1=C(C)NC(C)=C(C(=O)OC)C1c1cccc(Cl)c1Cl (configuration not stated) [Clevidipine Butyrate]
(A) f

(Q) Follow-up item: C[C@H](N[C@@H](CCc1ccccc1)C(=O)O)C(=O)N1CCC[C@H]1C(=O)O [Enalaprilat dihydrate]
(A) f

(Q) Follow-up item: COc1cc(NS(=O)(=O)c2ccc(N)cc2)nc(OC)n1 [Sulphadimethoxine]
(A) f

(Q) Follow-up item: `CCCCCCCCCCCCCCCCO`
(A) f

(Q) Follow-up item: CCCCC(C=O)NC(=O)C(CC(C)C)NC(=O)C(CC(C)C)NC(C)=O (configuration not stated)
(A) t
